Could you please report measured apparent Kd (screen) for the items listed next?
Target: T1, TNFR1 (Homo sapiens, UniProt P19438)
T1 chain: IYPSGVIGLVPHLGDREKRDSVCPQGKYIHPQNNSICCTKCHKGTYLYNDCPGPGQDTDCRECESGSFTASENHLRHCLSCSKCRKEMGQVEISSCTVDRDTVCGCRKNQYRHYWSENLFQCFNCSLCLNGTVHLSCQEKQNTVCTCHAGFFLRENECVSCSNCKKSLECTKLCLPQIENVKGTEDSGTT
Assay: yeast display SC50
Answers are plain numbers, in nM.

Below, each entry is followed by its recorded apparent Kd (screen) result.
INSERT INTO results (binder, reported) VALUES
  ('E77F (designed binder) MTLQELLREEALRRAEAEAFRYALELLAEKFPEQKEYLLDLAEEIESQIRSLSGVDVEDVRKFLDKEWAWVKELLAFHPAELAEVEAARAARLAELRAEVEAKVAA', 0.446),
  ('R14W (designed binder) MTLQELLREEALRWAEAEAFRYALELLAEKFPEQKEYLLDLAEEIESQIRSLSGVDVEDVRKFLDKEWAWVKELLAEHPAELAEVEAARAARLAELRAEVEAKVAA', 0.539),
  ('A76D (designed binder) MTLQELLREEALRRAEAEAFRYALELLAEKFPEQKEYLLDLAEEIESQIRSLSGVDVEDVRKFLDKEWAWVKELLDEHPAELAEVEAARAARLAELRAEVEAKVAA', 0.446);

Next binder, please.
Quick note, apparent Kd (screen) for V55L (designed binder) MTLQELLREEALRRAEAEAFRYALELLAEKFPEQKEYLLDLAEEIESQIRSLSGLDVEDVRKFLDKEWAWVKELLAEHPAELAEVEAARAARLAELRAEVEAKVAA landed at 0.653
